Test: Antioxidant activity assessed as inhibition of DPPH radical scavenging activity by measuring reduction in absorbance at 100 uM by spectrophotometric analysis relative to control
Assay type: functional
Provide the recorded inhibition for the entries that follow.
Record the value in %, omitting the unit from your answer.

Prompt: Any idea what inhibition was measured for `COc1cc(C[C@@H](O)c2cc(=O)c3c(O)cc(O)cc3o2)ccc1O` ?
Response: 56.1

Prompt: Again, but for `O=c1cc(CCc2ccc(O)c(O)c2)oc2cc(O)cc(O)c12`
Response: 91.2

Prompt: Again, but for `CCCOC(=O)c1cc(O)c(O)c(O)c1`
Response: 97.4

Prompt: Again, but for O=c1cc(CCc2ccc(O)cc2)oc2cc(OC3O[C@H](CO)[C@@H](O)[C@H](O)[C@H]3O)cc(O)c12 (stereo not given in full)
Response: 56.1

Prompt: Again, but for `O=c1cc(CCc2ccc(O)cc2)oc2cc(O)cc(O)c12`
Response: 56.1

----------
Target: cGMP-inhibited 3',5'-cyclic phosphodiesterase 3A (Homo sapiens)
Sequence (Q14432 whole entry): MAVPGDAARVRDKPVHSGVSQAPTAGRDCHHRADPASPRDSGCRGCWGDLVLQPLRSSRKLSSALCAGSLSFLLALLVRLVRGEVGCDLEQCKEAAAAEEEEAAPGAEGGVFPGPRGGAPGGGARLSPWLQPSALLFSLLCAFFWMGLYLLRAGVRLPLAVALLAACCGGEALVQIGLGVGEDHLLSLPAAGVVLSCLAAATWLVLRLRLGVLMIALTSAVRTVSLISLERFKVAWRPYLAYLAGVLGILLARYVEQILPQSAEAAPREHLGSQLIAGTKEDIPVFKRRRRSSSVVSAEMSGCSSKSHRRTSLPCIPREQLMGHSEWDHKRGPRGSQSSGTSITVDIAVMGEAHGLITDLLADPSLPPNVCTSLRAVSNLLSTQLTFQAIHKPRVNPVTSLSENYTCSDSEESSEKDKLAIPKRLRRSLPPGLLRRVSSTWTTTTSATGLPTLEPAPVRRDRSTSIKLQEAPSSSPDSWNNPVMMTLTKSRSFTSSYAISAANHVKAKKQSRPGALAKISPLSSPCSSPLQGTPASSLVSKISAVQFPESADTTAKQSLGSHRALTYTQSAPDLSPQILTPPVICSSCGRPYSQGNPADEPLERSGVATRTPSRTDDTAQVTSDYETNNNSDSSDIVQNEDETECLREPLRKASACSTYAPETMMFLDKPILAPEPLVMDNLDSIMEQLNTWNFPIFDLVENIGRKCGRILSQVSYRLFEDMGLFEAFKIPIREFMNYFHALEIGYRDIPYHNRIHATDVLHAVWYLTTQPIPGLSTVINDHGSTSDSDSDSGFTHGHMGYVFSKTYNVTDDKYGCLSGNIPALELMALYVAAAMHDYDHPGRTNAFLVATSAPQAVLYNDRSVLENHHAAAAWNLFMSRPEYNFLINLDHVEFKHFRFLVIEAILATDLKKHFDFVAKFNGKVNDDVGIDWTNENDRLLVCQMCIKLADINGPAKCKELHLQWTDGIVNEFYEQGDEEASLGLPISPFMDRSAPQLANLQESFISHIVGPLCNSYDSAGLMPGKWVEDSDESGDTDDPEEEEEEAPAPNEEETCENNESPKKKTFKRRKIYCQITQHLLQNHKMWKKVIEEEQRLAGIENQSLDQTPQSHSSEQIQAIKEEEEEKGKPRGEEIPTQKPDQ
Experiment: Inhibition of human recombinant PDE3A using FAM-cAMP as substrate incubated for 60 mins by fluorescence polarization method
measuredParameter: IC50 (µM)
Record the value in µM, omitting the unit from your answer.

Prompt: Any idea what IC50 was measured for `O=C(CCc1ccccc1)O[C@@H]1c2oc(CCc3ccccc3)cc(=O)c2[C@H](O)[C@@H](O)[C@H]1O` ?
Response: 42.6

----------
Provide the recorded pIC50 for the entries that follow.
Target: Acetylcholinesterase (Homo sapiens, UniProt P22303)
Sequence (P22303 whole entry): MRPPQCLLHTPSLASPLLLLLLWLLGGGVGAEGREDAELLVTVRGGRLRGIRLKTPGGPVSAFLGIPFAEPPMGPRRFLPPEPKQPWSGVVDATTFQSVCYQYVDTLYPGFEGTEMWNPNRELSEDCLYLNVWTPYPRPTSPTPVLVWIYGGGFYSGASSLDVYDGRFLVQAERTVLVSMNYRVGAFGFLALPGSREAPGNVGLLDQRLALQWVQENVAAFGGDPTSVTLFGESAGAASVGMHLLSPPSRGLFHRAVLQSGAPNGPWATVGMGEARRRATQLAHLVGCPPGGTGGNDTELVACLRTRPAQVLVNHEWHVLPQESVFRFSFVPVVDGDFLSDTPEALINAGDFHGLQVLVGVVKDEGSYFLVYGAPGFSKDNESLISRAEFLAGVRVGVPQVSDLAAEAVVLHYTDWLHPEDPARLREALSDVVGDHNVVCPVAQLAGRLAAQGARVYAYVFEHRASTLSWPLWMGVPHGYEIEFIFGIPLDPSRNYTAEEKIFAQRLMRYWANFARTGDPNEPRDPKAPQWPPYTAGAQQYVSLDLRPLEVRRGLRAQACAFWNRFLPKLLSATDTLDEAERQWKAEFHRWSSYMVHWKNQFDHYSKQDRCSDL
// scale note: pIC50 = -log10(conc_M); give the bare number

Prompt: Any idea what pIC50 was measured for `COc1ccc(CCc2cc(=O)c3c(o2)[C@H]2O[C@H]2[C@@H](O)[C@H]3OC)cc1` ?
Response: 3.81

Prompt: Again, but for `COc1ccc(CCc2cc(=O)c3c(o2)[C@H]2O[C@H]2[C@@H](O)[C@H]3OC)cc1O`
Response: 3.35
